// data source = patent US7179941B2

- testSystem: human glycogen phosphorylase a (Homo sapiens)
- Sequence (P06737 1-847): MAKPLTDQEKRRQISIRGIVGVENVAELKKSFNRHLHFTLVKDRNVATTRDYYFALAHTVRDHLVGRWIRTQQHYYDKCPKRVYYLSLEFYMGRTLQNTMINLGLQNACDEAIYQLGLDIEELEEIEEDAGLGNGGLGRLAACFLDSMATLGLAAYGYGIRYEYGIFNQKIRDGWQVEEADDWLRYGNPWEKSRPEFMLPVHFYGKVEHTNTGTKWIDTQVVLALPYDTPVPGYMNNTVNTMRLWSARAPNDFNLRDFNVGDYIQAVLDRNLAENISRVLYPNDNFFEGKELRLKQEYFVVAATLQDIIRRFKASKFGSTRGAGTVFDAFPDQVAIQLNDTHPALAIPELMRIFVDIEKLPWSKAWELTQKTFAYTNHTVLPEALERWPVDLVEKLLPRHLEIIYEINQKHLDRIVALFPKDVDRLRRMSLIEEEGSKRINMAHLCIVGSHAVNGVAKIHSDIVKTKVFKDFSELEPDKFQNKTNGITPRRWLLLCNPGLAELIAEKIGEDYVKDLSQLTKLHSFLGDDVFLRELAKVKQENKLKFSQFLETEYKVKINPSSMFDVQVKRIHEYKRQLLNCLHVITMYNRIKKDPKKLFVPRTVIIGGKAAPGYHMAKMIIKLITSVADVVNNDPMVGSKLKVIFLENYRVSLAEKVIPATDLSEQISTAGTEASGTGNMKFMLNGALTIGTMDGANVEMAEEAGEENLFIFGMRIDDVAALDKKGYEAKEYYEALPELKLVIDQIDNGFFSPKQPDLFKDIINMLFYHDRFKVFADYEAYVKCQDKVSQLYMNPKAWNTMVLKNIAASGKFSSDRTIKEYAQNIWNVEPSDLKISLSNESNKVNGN
- assaySummary: Glycogen phosphorylase a activity test
- Type: biochemical
- appliedConditions: 10 μM test substance; GPa measured in reverse direction (glycogen synthesis from glucose 1-phosphate)
- Procedure: Glycogen Phophorylase a Activity Test The effect of compounds on the activity of the active form of glycogen phosphorylase (GPa) was measured in the reverse direction by monitoring the synthesis of glycogen from glucose 1-phosphate by determining the release of inorganic phosphate. […]
measure: % Inhibition at 10 μM (%)

| querySmiles | unitInfo | % Inhibition at 10 μM |
| --- | --- | --- |
| C#CCC(=O)Nc1ccc(OC)c(NC(=O)NC(=O)c2cc(F)c(F)cc2Cl)c1 | % | 103 |
| C#CCCC(=O)Nc1ccc(OC)c(NC(=O)NC(=O)c2cc(F)c(F)cc2Cl)c1 | % | 99 |
| COc1ccc(NC(=O)CO)cc1NC(=O)NC(=O)c1cc(F)c(F)cc1Cl | % | 101 |
| CC(=O)Nc1ccc(Cl)c(NC(=O)NC(=O)c2ccc(Cl)cc2Cl)c1.O=C(O)C(F)(F)F | % | 98 |
